# credit: the supplement of paper PMC6757056

B1: library; a variant is named by its letters at N, in order (parent)
chain: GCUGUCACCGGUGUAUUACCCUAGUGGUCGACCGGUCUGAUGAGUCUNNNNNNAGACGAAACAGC

- Variants of: B1
- Protocol: normalized RNA/DNA level with ligand (relative to sTRSVctl = 100) (log10 (% of sTRSVctl)); ligand: hypoxanthine (xanthine aptamer); higher = less ribozyme self-cleavage, higher mRNA level
- Condition details: ligand concentration (+) RNA-Seq: 5 mM, HEK293T, reporter: mCherry (pCS4076), ligand present: yes
List of normalized RNA/DNA level with ligand (log10) values.
API note: the answer field is a bare number with no unit suffix.

Examples with answers:
# Variant code, Number
records = [
    ("UGGGAU", 1.94),
    ("UCCUUA", 1.96),
]

Input: What measured normalized RNA/DNA level with ligand (log10) goes with UGCAUC ?
Output: 2.02

Input: What measured normalized RNA/DNA level with ligand (log10) goes with AGUCAA ?
Output: 1.89

Input: What measured normalized RNA/DNA level with ligand (log10) goes with CCGAAU ?
Output: 1.9

Input: What measured normalized RNA/DNA level with ligand (log10) goes with AUCAGU ?
Output: 1.88

Input: What measured normalized RNA/DNA level with ligand (log10) goes with UUGAUU ?
Output: 1.98

Input: What measured normalized RNA/DNA level with ligand (log10) goes with UAUGAC ?
Output: 1.95

Input: What measured normalized RNA/DNA level with ligand (log10) goes with UGCUGG ?
Output: 1.95

Input: What measured normalized RNA/DNA level with ligand (log10) goes with AUUCUC ?
Output: 2.01
